# Assay Notes: Elimination half life in CD-1 mouse plasma at 1 mg/kg, iv administered as bolus
# Assay type: ADME, organism-based
# Settings: read-out: beta t1/2 (converted)
Measured Endpoint: half-life

Just so you know, measured half-life for `Cc1cc2cc(NS(=O)(=O)c3ccc(C#N)cc3)ccc2n(C)c1=O` came out at 120 min

---

# Tested System: CREB-binding protein (Homo sapiens, UniProt Q92793)
# Sequence (Q92793 whole entry): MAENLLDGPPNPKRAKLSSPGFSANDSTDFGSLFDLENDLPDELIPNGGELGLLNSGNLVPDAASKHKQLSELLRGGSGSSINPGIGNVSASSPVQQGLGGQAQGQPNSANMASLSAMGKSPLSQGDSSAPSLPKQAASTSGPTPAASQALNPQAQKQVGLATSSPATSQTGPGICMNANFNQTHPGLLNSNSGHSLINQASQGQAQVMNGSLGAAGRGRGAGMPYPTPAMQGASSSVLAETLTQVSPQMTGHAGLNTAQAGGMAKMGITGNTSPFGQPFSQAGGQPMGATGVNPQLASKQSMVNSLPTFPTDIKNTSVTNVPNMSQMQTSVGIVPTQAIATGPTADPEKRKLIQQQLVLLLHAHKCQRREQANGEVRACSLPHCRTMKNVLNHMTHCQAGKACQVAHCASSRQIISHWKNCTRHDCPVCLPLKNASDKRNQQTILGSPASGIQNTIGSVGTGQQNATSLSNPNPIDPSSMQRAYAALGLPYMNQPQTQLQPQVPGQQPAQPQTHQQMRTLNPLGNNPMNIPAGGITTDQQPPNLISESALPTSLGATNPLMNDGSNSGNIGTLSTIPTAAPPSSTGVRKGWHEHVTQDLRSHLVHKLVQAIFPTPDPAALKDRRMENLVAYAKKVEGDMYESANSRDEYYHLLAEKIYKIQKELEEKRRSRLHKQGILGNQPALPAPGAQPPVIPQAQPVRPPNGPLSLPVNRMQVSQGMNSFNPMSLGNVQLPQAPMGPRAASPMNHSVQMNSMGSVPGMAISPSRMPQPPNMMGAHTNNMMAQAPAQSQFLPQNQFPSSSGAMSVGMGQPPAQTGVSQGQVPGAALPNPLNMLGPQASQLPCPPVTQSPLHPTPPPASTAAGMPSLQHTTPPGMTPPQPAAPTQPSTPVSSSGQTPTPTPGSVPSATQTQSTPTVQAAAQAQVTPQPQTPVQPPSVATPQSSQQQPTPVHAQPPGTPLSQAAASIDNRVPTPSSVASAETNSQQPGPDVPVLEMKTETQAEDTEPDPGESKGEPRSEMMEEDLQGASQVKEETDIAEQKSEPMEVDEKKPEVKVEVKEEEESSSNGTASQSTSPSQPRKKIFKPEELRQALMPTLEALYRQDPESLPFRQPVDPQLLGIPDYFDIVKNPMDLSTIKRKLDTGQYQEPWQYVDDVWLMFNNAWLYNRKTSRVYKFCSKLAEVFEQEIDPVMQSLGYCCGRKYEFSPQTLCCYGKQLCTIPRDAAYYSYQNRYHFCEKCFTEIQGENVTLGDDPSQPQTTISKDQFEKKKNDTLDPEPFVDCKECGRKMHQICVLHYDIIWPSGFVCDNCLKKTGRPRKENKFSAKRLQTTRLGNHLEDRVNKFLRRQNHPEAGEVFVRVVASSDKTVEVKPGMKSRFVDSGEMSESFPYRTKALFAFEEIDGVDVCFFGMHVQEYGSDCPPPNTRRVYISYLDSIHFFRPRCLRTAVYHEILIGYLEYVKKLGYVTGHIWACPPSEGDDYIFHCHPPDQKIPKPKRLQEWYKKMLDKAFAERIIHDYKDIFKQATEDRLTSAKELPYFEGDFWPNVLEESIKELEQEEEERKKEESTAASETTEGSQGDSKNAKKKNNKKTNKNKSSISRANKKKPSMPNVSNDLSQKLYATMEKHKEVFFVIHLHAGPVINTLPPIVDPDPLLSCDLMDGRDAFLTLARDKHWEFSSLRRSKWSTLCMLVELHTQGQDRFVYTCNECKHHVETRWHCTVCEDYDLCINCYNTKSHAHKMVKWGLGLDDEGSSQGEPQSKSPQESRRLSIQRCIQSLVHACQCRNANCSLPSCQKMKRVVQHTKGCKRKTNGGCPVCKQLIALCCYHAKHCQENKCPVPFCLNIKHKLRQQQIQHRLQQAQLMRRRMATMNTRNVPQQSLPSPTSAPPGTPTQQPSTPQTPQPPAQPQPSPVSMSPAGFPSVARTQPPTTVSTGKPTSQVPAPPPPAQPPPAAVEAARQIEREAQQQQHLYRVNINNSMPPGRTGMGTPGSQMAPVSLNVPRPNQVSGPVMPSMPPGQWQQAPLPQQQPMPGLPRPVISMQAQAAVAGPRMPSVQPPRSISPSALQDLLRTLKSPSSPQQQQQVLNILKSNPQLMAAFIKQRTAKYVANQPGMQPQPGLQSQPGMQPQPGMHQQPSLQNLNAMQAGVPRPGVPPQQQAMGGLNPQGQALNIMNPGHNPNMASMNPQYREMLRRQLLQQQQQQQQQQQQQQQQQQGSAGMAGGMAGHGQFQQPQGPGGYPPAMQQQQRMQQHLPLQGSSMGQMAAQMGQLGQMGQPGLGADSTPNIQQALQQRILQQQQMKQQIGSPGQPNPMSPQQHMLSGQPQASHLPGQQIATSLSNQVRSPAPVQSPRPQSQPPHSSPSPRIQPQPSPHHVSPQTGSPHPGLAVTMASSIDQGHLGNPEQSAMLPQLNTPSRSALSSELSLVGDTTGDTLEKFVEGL
# Assay Notes: Inhibition of human CREBBP expressed in Escherichia coli BL21 after 1 hr by BROMOscan assay
Measured Endpoint: IC50

Just so you know, measured IC50 for `CCc1cc2cc(NS(=O)(=O)c3ccc(C#N)cc3)ccc2n(CC)c1=O` came out at > 100 µM
